# method: in vivo
# experimental-setup: male, FVB, mouse, portal vein plasma, po, 20 mg/kg
readout-type: AUC (µM·h)
Kindly answer with a numeric value in µM·h, unit omitted.

Please look at this molecule and report its AUC: CC(=O)O[C@H]1C(=O)[C@@]2(C)[C@H]([C@H](OC(=O)c3ccccc3)[C@]3(O)C[C@H](OC(=O)[C@H](O)[C@@H](NC(=O)c4ccccc4)c4ccccc4)C(C)=C1C3(C)C)[C@]1(OC(C)=O)CO[C@@H]1C[C@@H]2O
2

* * *

# method: in vivo
# experimental-setup: FVB, mouse, plasma, iv, 5 mg/kg
readout-type: AUC (µM·h)
Kindly answer with a numeric value in µM·h, unit omitted.

Please look at this compound and report its AUC: CC(=O)O[C@H]1C(=O)[C@@]2(C)[C@H]([C@H](OC(=O)c3ccccc3)[C@]3(O)C[C@H](OC(=O)[C@H](O)[C@@H](NC(=O)c4ccccc4)c4ccccc4)C(C)=C1C3(C)C)[C@]1(OC(C)=O)CO[C@@H]1C[C@@H]2O
2.66

* * *

# method: in vivo
# experimental-setup: FVB, mouse, portal vein plasma, po, 20 mg/kg
readout-type: Tmax (h)
Kindly answer with a numeric value in h, unit omitted.

Please look at this compound and report its Tmax: CC(=O)O[C@H]1C(=O)[C@@]2(C)[C@H]([C@H](OC(=O)c3ccccc3)[C@]3(O)C[C@H](OC(=O)[C@H](O)[C@@H](NC(=O)c4ccccc4)c4ccccc4)C(C)=C1C3(C)C)[C@]1(OC(C)=O)CO[C@@H]1C[C@@H]2O
1

* * *

# method: in vivo
# experimental-setup: male, FVB, mouse, portal vein plasma, po, 20 mg/kg
readout-type: half-life (h)
Kindly answer with a numeric value in h, unit omitted.

Please look at this molecule and report its half-life: CC(=O)O[C@H]1C(=O)[C@@]2(C)[C@H]([C@H](OC(=O)c3ccccc3)[C@]3(O)C[C@H](OC(=O)[C@H](O)[C@@H](NC(=O)c4ccccc4)c4ccccc4)C(C)=C1C3(C)C)[C@]1(OC(C)=O)CO[C@@H]1C[C@@H]2O [paclitaxel]
1.62

* * *

# method: in vivo
# experimental-setup: male, FVB, mouse, systemic (abdominal vein) plasma, po, 20 mg/kg
readout-type: Tmax (h)
Kindly answer with a numeric value in h, unit omitted.

Please look at this compound and report its Tmax: CC(=O)O[C@H]1C(=O)[C@@]2(C)[C@H]([C@H](OC(=O)c3ccccc3)[C@]3(O)C[C@H](OC(=O)[C@H](O)[C@@H](NC(=O)c4ccccc4)c4ccccc4)C(C)=C1C3(C)C)[C@]1(OC(C)=O)CO[C@@H]1C[C@@H]2O
1

* * *

# target-or-test-system: BCRP (Homo sapiens)
# Sequence (Q9UNQ0 1-655): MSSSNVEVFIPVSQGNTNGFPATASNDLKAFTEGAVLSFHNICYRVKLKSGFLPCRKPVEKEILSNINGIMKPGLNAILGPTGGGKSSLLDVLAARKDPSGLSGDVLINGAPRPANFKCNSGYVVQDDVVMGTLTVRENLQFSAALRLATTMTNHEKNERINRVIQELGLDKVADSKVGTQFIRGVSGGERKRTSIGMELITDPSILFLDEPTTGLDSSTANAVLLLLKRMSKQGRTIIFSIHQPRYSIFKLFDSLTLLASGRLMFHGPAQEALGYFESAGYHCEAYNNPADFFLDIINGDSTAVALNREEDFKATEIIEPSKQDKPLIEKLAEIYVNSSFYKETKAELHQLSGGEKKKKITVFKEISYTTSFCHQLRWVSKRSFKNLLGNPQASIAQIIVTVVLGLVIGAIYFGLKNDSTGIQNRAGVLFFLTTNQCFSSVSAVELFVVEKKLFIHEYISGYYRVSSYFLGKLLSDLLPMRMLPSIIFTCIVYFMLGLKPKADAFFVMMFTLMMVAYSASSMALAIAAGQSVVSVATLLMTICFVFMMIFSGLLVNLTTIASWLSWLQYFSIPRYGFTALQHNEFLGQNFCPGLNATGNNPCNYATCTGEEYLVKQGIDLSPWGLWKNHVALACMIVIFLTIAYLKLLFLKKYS
# method: Inhibition of BCRP-mediated transport of mitoxantrone across Caco-2 cell monolayers
# experimental-setup: IC50 on ER of mitoxantrone, Caco-2 monolayers; 50% decrease of efflux ratio
readout-type: pIC50
# pIC50 = -log10(concentration in molar units)

Give pIC50 for COc1cc(C(=O)C(=O)N2CCCC[C@H]2C(=O)OC(CCCc2cccnc2)CCCc2cccnc2)cc(OC)c1OC tested on BCRP (Homo sapiens).
5.79
